Assignment: determine reported EC50 for the given molecules.
Test system: A549
Test: Cytotoxicity against human A549 cells
Type: functional
Conditions: read-out: ED50 (the source's name)
Give the number; µg/mL is assumed, so skip it.

Quick check: EC50 of `CCCCCCCCCC[C@H](O)[C@@H]1CC[C@H]([C@H]2CC[C@@H]([C@H](O)CCCCCCCCCCCCC3=C[C@H](C)OC3=O)O2)O1` ? 0.4

Quick check: EC50 of `COc1cccc2c1C(=O)c1c(O)c3c(c(O)c1C2=O)C[C@@](O)(C(=O)CO)C[C@@H]3O[C@H]1C[C@H](N)[C@H](O)[C@H](C)O1` ? 0.89

These entries and their values trace back to ChEMBL document CHEMBL1144086.
